# Measurement target: Indoleamine 2,3-dioxygenase 1 (Homo sapiens)
# Sequence (P14902 whole entry): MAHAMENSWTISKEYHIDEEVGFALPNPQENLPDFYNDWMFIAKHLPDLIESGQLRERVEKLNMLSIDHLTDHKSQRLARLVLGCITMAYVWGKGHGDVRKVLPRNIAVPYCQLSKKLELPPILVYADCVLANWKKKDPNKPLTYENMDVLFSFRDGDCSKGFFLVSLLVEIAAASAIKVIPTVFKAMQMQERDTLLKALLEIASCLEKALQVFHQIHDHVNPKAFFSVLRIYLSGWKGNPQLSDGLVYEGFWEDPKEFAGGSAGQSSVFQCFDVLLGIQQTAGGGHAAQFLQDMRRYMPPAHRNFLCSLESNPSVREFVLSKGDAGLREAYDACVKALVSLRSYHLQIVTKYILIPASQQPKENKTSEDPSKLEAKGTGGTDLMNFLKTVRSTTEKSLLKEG
# Test method notes: Inhibition of IDO1 in IFNgamma-induced human HeLa cells incubated for 5 hrs by Ehrlich's reagent based assay
# Assay type: cell-based
Observation type: IC50 (nM)
Answers are plain numbers, in nM.

[in] Entry CC1(C)CCC2=C(O1)c1ccccc1C(=O)C2=O : reported IC50 = ?
[out] 1000

====

# Measurement target: Indoleamine 2,3-dioxygenase 1 (Homo sapiens)
# Test method notes: Inhibition of full-length human IDO1 expressed in Escherichia coli Rosetta (DE3) using L-Trp substrate by HPLC analysis
Observation type: pIC50
Numbers only, as −log10 of the molar value.

[in] Form entry - test system: Indoleamine 2,3-dioxygenase 1 (Homo sapiens); read-out: pIC50; molecule: Clc1ccc(Nc2cn[nH]n2)cc1
[out] 4.15
